# Protocol details: Pharmacokinetics of TH302 in Beagle Dogs (Table 6)
# Type: in vivo
# Condition parameters: female, dog, plasma, intravenous, Females, 32 mg/kg
Parameter measured: Cmax (ng/mL)

>>> quantitative_result("Cn1c(COP(=O)(NCCBr)NCCBr)cnc1[N+](=O)[O-] [TH302]")
18500

---

# Protocol details: Pharmacokinetics in CD-1 mice
# Type: in vivo
# Condition parameters: male, CD-1, mouse, plasma, ip, 50 mg/kg, 50 mg/kg i.p., read-out: terminal half-lives (t1/2)
Parameter measured: half-life (min)

>>> quantitative_result("Cn1c(COP(=O)(NCCBr)NCCBr)cnc1[N+](=O)[O-]")
7.9
